System tested: Hepatitis C virus serine protease, NS3/NS4A (Hepatitis C virus, UniProt A3EZI9+D2K2A8, D168A)
Run description: Inhibition of HCV genotype 1a NS3/4A protease D168A mutant using Ac-DE-Dap(QXL 520)-EE-Abu-psi-[COO]AS-C(5-FAMsp)-NH2 as substrate preincubated for 1 hr followed by substrate addition
Reported Ki values for a set of molecules

# example entries with known answers
smiles_data=CCc1nc2ccccc2nc1O[C@@H]1C[C@H]2C(=O)N[C@]3(C(=O)NS(=O)(=O)C4CC4)C[C@H]3/C=C\CCCCC[C@H](NC(=O)OC(C)(C)C)C(=O)N2C1 measured_endpoint=Ki result="190 nM"
smiles_data=CCc1nc2ccccc2nc1O[C@@H]1C[C@H]2C(=O)N[C@]3(C(=O)NS(=O)(=O)C4CC4)C[C@H]3/C=C\CCCCC[C@H](NC(=O)OC3CCCC3)C(=O)N2C1 measured_endpoint=Ki result="107 nM"

Challenge: Fill in the blank: the reported Ki of COc1ccc2nc(C(F)(F)F)c(O[C@@H]3C[C@H]4C(=O)N[C@]5(C(=O)NS(=O)(=O)C6CC6)C[C@H]5/C=C\CCCCC[C@H](NC(=O)OC5CCCC5)C(=O)N4C3)nc2c1 is ____.
Response given: 115 nM

###

Run description: Inhibition of HCV genotype 1a NS3/4A protease using Ac-DE-Dap(QXL 520)-EE-Abu-psi-[COO]AS-C(5-FAMsp)-NH2 as substrate preincubated for 1 hr followed by substrate addition
Parameters: species or system Hepatitis C virus subtype 1a
Measured endpoint: pKi
Scale note: pKi = -log10(concentration in M).

Examples with answers:
smiles_data=COc1ccc2nc(C(F)(F)F)c(O[C@@H]3C[C@H]4C(=O)N[C@]5(C(=O)NS(=O)(=O)C6CC6)C[C@H]5/C=C\CCCCC[C@H](NC(=O)OC5CCCC5)C(=O)N4C3)nc2c1 measured_endpoint=pKi result=8.12
smiles_data=CCc1nc2ccc(OC)cc2nc1O[C@@H]1C[C@H]2C(=O)N[C@]3(C(=O)NS(=O)(=O)C4(C)CC4)C[C@H]3/C=C\CCCCC[C@H](NC(=O)OC(C)(C)C)C(=O)N2C1 measured_endpoint=pKi result=8.74
smiles_data=CCc1nc2ccc(OC)cc2nc1O[C@@H]1C[C@H]2C(=O)N[C@]3(C(=O)NS(=O)(=O)C4CC4)C[C@H]3/C=C\CCCCC[C@H](NC(=O)OC(C)(C)C)C(=O)N2C1 measured_endpoint=pKi result=8.48

Challenge: Which value of pKi has been reported for COc1ccc2nc(C)c(O[C@@H]3C[C@H]4C(=O)N[C@]5(C(=O)NS(=O)(=O)C6(C)CC6)C[C@H]5/C=C\CCCCC[C@H](NC(=O)OC5CCCC5)C(=O)N4C3)nc2c1 in the records?
Response given: 8.95

###

System: Hepatitis C virus
Run description: Antiviral activity against HCV genotype 1b Con1 harboring HCV genotype 1a H77 NS3 D168A mutant infected in human HuH7 cells assessed as inhibition of viral replication after 96 hrs by luciferase reporter gene assay
Assay type: functional, cell-based, Hepacivirus hominis
Run parameters: genotype 1b Con1, Huh-7, 96 h
EC50 less than 9 nM is 1.0; EC50 greater than or equal to 9 nM is 0.0.

smiles_data=COc1ccc2nc(C)c(O[C@@H]3C[C@H]4C(=O)N[C@]5(C(=O)NS(=O)(=O)C6(C)CC6)C[C@H]5/C=C\CCCCC[C@H](NC(=O)OC5CCCC5)C(=O)N4C3)nc2c1 system_tested="Hepatitis C virus" category=1.0

Challenge: Threshold test, EC50 < 9 nM: COc1ccc2nc(C)c(O[C@@H]3C[C@H]4C(=O)N[C@]5(C(=O)NS(=O)(=O)C6(C)CC6)C[C@H]5/C=C\CCCCC[C@H](NC(=O)OC(C)(C)C)C(=O)N4C3)nc2c1
Response given: 1.0

Challenge: Record: CCc1nc2ccc(OC)cc2nc1O[C@@H]1C[C@H]2C(=O)N[C@]3(C(=O)NS(=O)(=O)C4CC4)C[C@H]3/C=C\CCCCC[C@H](NC(=O)OC3CCCC3)C(=O)N2C1
Response given: 1.0

Challenge: Another compound: COc1ccc2nc(C)c(O[C@@H]3C[C@H]4C(=O)N[C@]5(C(=O)NS(=O)(=O)C6CC6)C[C@H]5/C=C\CCCCC[C@H](NC(=O)OC(C)(C)C)C(=O)N4C3)nc2c1
Response given: 1.0

Challenge: What about COc1ccc2nc(Cl)c(O[C@@H]3C[C@H]4C(=O)N[C@]5(C(=O)NS(=O)(=O)C6CC6)C[C@H]5/C=C\CCCCC[C@H](NC(=O)OC(C)(C)C)C(=O)N4C3)nc2c1 ?
Response given: 1.0

Challenge: One more compound: COc1ccc2nc(C(C)C)c(O[C@@H]3C[C@H]4C(=O)N[C@]5(C(=O)NS(=O)(=O)C6CC6)C[C@H]5/C=C\CCCCC[C@H](NC(=O)OC5CCCC5)C(=O)N4C3)nc2c1
Response given: 1.0

Challenge: And what about the compound COc1ccc2nc(C(F)(F)F)c(O[C@@H]3C[C@H]4C(=O)N[C@]5(C(=O)NS(=O)(=O)C6(C)CC6)C[C@H]5/C=C\CCCCC[C@H](NC(=O)OC(C)(C)C)C(=O)N4C3)nc2c1 ?
Response given: 1.0

Values were extracted from ChEMBL document CHEMBL4011627.
